Test system: K4 kissing-loop RNA reporter
Experiment: apparent KD of K4 kissing-loop reporter; higher = weaker reporter binding
Details: Eterna round: R107; input ligand: theophylline 20 uM
Use rule met when the recorded apparent KD of K4 kissing-loop reporter is no lower than 700 nM; use rule not met when it is lower.

Incoming: Could you please find out whether GUUACGCAUGGAAGGAGCGCUCUCCGGUUGAUCGACACAGUGAUGUUGUGGUUCUACCGUAAGCAGGUAGGUCGCCAUGUGUAAC [Ex Arginine B K4 14] has apparent KD of K4 kissing-loop reporter that meets 700 nM or exceeds it?
Outgoing: rule met

Incoming: Ok, now ACCCGGGCCCGAAAGGGCCCGGGAAGAGAUACCAGCAGCGAAAGCUGCCCUUGGCAGCUCACUUAGUGAUGUUGAGUAUAGGGUA [#22 K4 Theophylline A Same State]
Outgoing: rule not met

Incoming: Ok, now UAAUGCAUGACGGCCGCCACUAGUACUGGAGUGAUGUUGUGGUACGGCGGCAGUAUAGGGUGGACUAGGACCGGGUCAUGCAUAU [KL-XTryp-B11 #analogue]
Outgoing: rule not met

Incoming: Ok, now UAAUUUAUGUCUUUAAUAUAAUUUUCAGAUACCAGUGAUUAUUAACACCCUUGGCAGCUGUAUAGAGUGAUGUUCUUAUGCUUAA [JR_ExcTheophyA_Sub009]
Outgoing: rule not met

Incoming: Ok, now UUUGCAAAGUCGGCCGCCACUCCGGGCCCUAUAAAUGGGCGCAGUGAUGUUGCGGCUAGGCCUCUGAGGACCGGGACUUUGUAAA [Inusleve]
Outgoing: rule not met

###

System: MS2 coat protein
Test: apparent KD of MS2 coat protein; higher = weaker reporter binding
Conditions: Eterna round: R101; input ligand: FMN 200 uM
endpoint: apparent KD of MS2 coat protein (nM)
API: value field is a number in nM; no unit string.

Incoming: Kindly state the measured apparent KD of MS2 coat protein obtained for AUAUAUAUAUAGAAGGACAUGAGGAUCACCCAUGUCGCCGGGCCCGGGAAACCGGGCCCGGCCAUGUAGGAUAUAUAUAUAUAU [#This is a good prank 12] (puzzle (switch architecture): Inverted Exclusion NG 2) with MS2 coat protein.
Outgoing: 5.57

Incoming: Ok, now GCAGCUAAUGCAGGAUAUCAGCACGUGUAGUGCUGAGAAGGGCACAUGAGGAUCAAAACUGUGAUCAAUUAAUAUUAAUGCUGC [salish99#hingeEx3_55-58_001] (puzzle (switch architecture): Exclusion NG 1)
Outgoing: 8.28

Incoming: Ok, now AAAUAAAUUCAAGGAUAUCAGUGGCAAAGCCACUGAGAAGGUGAGGAUCACCCACCUAUGAUCACAGGUGACGAAAGUCACCUG [#SharedSequence ExNG1 - 38] (puzzle (switch architecture): Exclusion NG 1)
Outgoing: 11.4

Incoming: Ok, now AAAUAAACUCAAGGAUAUGACUCCGAAACGGAGUCAGAAGGUGAGGAUCACCCACCUAAGAUCAGACCUCAGGAAACUGAGGUC [#SharedSequence ExNG1 - 36] (puzzle (switch architecture): Exclusion NG 1)
Outgoing: 13.2

Incoming: Ok, now UUACUCAUGUAAGGAUAUGCAGCCGAAACGGCUGCAGAAGGUACUAUAAUACAUGAGGAUCACCCAUGUAAAAUAAAUAAGGUU (puzzle (switch architecture): Same State NG 1)
Outgoing: 19.5

Incoming: Ok, now UAUUAUUUGGAGAAGGACAUGAGGAUCACCCAUGUCGCCGGGCCCGGGAAACCGGGCCCGGCCAUGUAGGAUAUCCGGAUGGUA [#This is a good prank 4] (puzzle (switch architecture): Inverted Exclusion NG 2)
Outgoing: 7.61

Incoming: Ok, now AAAUCUCGAGCCGACGGGAGAGUACAUGAGGAUCACCCAUGUGAGGAUAUCCCUGAGAAGACGGCGGAGAAGGCACUGGGUAGG [Erzaribeve] (puzzle (switch architecture): Exclusion NG 3)
Outgoing: 9.95

Incoming: Ok, now AAAUGCCUGUCGAUGCUCGACAUGAGGAUCACCCAUGUAUAGCAGGAUAUGCAGAACUGACUCGUGCAGAAGGGCUAUACCUAA (puzzle (switch architecture): Exclusion NG 3)
Outgoing: 52.8

Incoming: Ok, now GCCAUCGCAUGAGGAUAUGCUCCGGUUUCCGGAGCAGAAGGCAUGUCAUAAGACAUGAGGAUCACCCAUGUAGUUAAGAUGGCA [#HiddenHairpinInALoop - jl-sng1-2.00 jl mod - Original] (puzzle (switch architecture): Same State NG 1)
Outgoing: 10.6

###

Task for the reader: assign each of the following sequences its reported apparent KD of MS2 coat protein.
Tested on: MS2 coat protein
Assay: apparent KD of MS2 coat protein; higher = weaker reporter binding
Conditions: Eterna round: R107; input ligand: tryptophan 2.4 mM
API: value field is a number in nM; no unit string.

Incoming: So what's the measured apparent KD of MS2 coat protein for this one? CCAUACGUAACUGAUACCAGUGUACUGACAUGAGGAUCACCCAUGUUGGGUUUUGUUGUACACCCUUGGCAGCAGAAUCGUAUGG [AstrosExyTheB#19]
Outgoing: 65.8

Incoming: Ok, now GCACGACAUGAGGAUCACCCAUGUGCAGAUACCAGUAAUGUAUGUUACCCUUGGCAGCUGAGUAGGUCUGGAGGGCUAUAGGUUU [Same State Theophylline A GF13]
Outgoing: 14.1

Incoming: Ok, now UUAUAUAUACAUGAGGAUCACCCAUGUGAUACCAGCCUGGAAACAGGCCCUUGGCAGCACAAAUACUCCAGAAAAUAUAAUAAAU [MAT - Exclusion Theophlline A - Mod of Eli - D4]
Outgoing: 27.8

###

Test system: MS2 coat protein
Experiment: apparent KD of MS2 coat protein; designed switch direction (-1 OFF switch, 1 ON switch): -1; higher = weaker reporter binding
Conditions: input ligand: microRNA oligo, concentration not stated
Task for the reader: assign each of the following sequences its reported apparent KD of MS2 coat protein.
API: value field is a number in nM; no unit string.

Incoming: So what's the measured apparent KD of MS2 coat protein for this one? CGAUGCUCGAGUCCACAUGAGGAUCACCCAUGUCGAGUUAGCGAGGAUAUCGGAGACACAUAGUAUGAGAAGGCGCGAACCUGA [Ex NG3 #20] (Eterna round: R96, puzzle: Exclusion NG 3)
Outgoing: 11.3

Incoming: Ok, now UGAUCUAGCGGAGGAUAUACAUGAGGAUCACCCAUGUAGAUAACUGCACCGUAGUGUAGUAUUGUGUAGAAGGCCGCUAGAUCU [JL ENG2 3.65] (Eterna round: R96, puzzle: Exclusion NG 2)
Outgoing: 11.4

Incoming: Ok, now UGAUCUAGCGGAGGAUAUACAUGAGGAUCACCCAUGUAGGAUCCAUGACCGUAGUCGUGGAUCGUGUAGAAGGCCGCUAGAUCU [JL ENG2 3.70] (Eterna round: R96, puzzle: Exclusion NG 2)
Outgoing: 8.14

###

Test system: K4 kissing-loop RNA reporter
Experiment: apparent KD of K4 kissing-loop reporter; higher = weaker reporter binding
Conditions: Eterna round: R107; input ligand: none
Use true (1) when the recorded apparent KD of K4 kissing-loop reporter is no lower than 200 nM; use false (0) when it is lower.

Incoming: Could you please find out whether GUUACGCAUGGAAGGAGCGCUCUCCGGUUGAUCGACACAGUGAUGUUGUGGUUCUACCGUAAGCAGGUAGGUCGCCAUGUGUAAC [Ex Arginine B K4 14] has apparent KD of K4 kissing-loop reporter that meets 200 nM or exceeds it?
Outgoing: true (1)

Incoming: Ok, now UGACUGGACUGAAGGAGCGCUAAAACUCCUAGUGAUGUUGGGAAAUAGAGACAAAGUCUCAAGCAGGUAGGUCGCAGUCUAGUCU [ArgBS 23 #SwitchBubble #StaticStem]
Outgoing: false (0)

Incoming: Ok, now CCUUCUCUUGGUAGUGAUGUUAUCAAGGACAAGGAUAUCAUCUCAAUGAGAAGGUGUCCUUGAUAACAUGGAGGUCUGAAACAGA [Omei KL FMN A Exc C v8]
Outgoing: false (0)

Incoming: Ok, now AGAGAUAUAUGAGGAUAUGGGAUAGUUAAUGAGUUAGUUUUAGUGUUGUUUGGUUAGUGAUGUUAUUUAGAAGGCGUGAGUGAUG [rxxvgmullin]
Outgoing: false (0)

Incoming: Ok, now CAUUCGAAAUGCAGUGAUGUUGCAACUGAUACCAGUAUCGAAAGAUACCCUUGGCAGCGGAAAACCGCUACGUUUUUUUUGAAUG [Ex Theophylline A K4 24]
Outgoing: true (1)

Incoming: Ok, now GGAUAGGACUGAGGAUAUGGGCUAGGCAAGAAUAACUUGUCUAGCAAAUCCAUGAGGAGUGAUGUUCCAGAAGGCGGUCCUAUCG [FmnBX 1 U10+G76]
Outgoing: false (0)

###

Tested on: K4 kissing-loop RNA reporter;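 also: bound reporter read as fluorescence of individual clusters on recovered sequencing chips by microscopy, with normalized cluster intensities fitted with a binding model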
Assay: apparent KD of K4 kissing-loop reporter; higher = weaker reporter binding
Details: Eterna round: R107; input ligand: tryptophan 2.4 mM
endpoint: apparent KD of K4 kissing-loop reporter (nM)
API: value field is a number in nM; no unit string.

Incoming: So what's the measured apparent KD of K4 kissing-loop reporter for this one? CACCAUGAAUUCUCUAGGAGUGAUGUUUUUCGAGGACCGGUACGGCCGCCACUCGGACGAGGAACGUGGGAGCGGCGAAAAGACU [xzzmullin]
Outgoing: 121

Incoming: Ok, now GACUCAUGUAGAAGGAGCGUCAGAAGUUAUAGACAUGAGUGAUGUUCAUGUUAGCUGAUUUGACAGGUAGGUCGCUACAGCAGGA [KL-SSArg B16 #analogue]
Outgoing: 121

Incoming: Ok, now AGUGAUGUUUUUUUUAAGAGUGAUGUUUUUCGAGGACCGGUACGGCCGCCACUCGAGUGAUGAGUGCGGUGUUGUGAUGUUUAGU [ewmullin]
Outgoing: 467
